IC50 values by entry
Test system: cGMP PDE5
assay-name: In vitro PDE inhibitory activity against cGMP PDE5 (IC50)
Type: biochemical
assay-setup: table of Examples, read-out: IC50 (in vitro activities as inhibitors of cGMP PDE5)
Please reply with the bare figure in nM and do not write the unit itself.

Illustrative cases are given below, each with its answer.
smiles_repr=CCOc1ncc(S(=O)(=O)N2CCN(CC)CC2)cc1-c1nc2c(-c3cccnc3)n(Cc3ncccn3)nc2c(=O)[nH]1 target_under_test="cGMP PDE5" obs_value=2.26
smiles_repr=CCCOc1ccc(S(=O)(=O)N2CCN(CCO)CC2)cc1-c1nc2c(C(N)=O)nn(Cc3ccccn3)c2c(=O)[nH]1 target_under_test="cGMP PDE5" obs_value=2.8

Q: Find IC50 (cGMP PDE5) for the entry CCCOc1ccc(S(=O)(=O)N2CCN(C)CC2)cc1-c1nc2c(C(=O)NC)nn(Cc3cccnc3)c2c(=O)[nH]1
A: 4.1

Q: Find IC50 (cGMP PDE5) for the entry CCN1CCN(S(=O)(=O)c2cnc(OCCOC)c(-c3nc4c(C(N)=O)nn(Cc5ccccn5)c4c(=O)[nH]3)c2)CC1
A: 2.8

Q: Find IC50 (cGMP PDE5) for the entry CCOc1ccc(S(=O)(=O)N2CCN(C)CC2)cc1-c1nc2c(C(=O)NC)nn(Cc3ccccc3)c2c(=O)[nH]1
A: 3.4
